System: SK-MEL-2
Experiment: NCI tumour cell line growth inhibition, 48 h
Active and inactive are the calls of the source. Cut-off read from the data, not from the text of the source: active = GI50 up to about 1.1 µM and inactive = higher.
Outcomes you can answer with include only these: t (active), f (inactive)

Past entries and their recorded results:
compound="C[N+]12C=CC=C1C(N1CCCC1)c1sc(-c3ccc(Cl)cc3)cc12 (stereo unspecified)" assigned_label=f
compound="FC(F)(F)C1(Cl)C(Cl)(c2ccccc2)C1(Cl)c1ccccc1 (stereo unspecified)" assigned_label=f
compound=COc1ccc(CCN2C(=O)C=CC2=O)cc1OC assigned_label=f

input: For this compound, state the assay outcome: `CCOC(=O)C(=C=C=C(c1ccccc1)c1ccccc1)C(=O)OCC`
output: f

input: Next: COc1cccc(C2c3cc4c(cc3OC(NNC(N)=O)C2C)OCO4)c1O (stereo unspecified)
output: t

input: Next: `c1ccc(/N=C2\c3ccccc3CN2c2ccccc2)cc1`
output: f

input: Next: N#CC1CCCCOCCOCCOCCOCCOCCCCCC1=O (stereo unspecified)
output: f

input: Next: `CCc1[nH]c(=O)c2oc3cc4ccccc4cc3c2c1C(=O)O`
output: f

input: Next: `O=C(/C(=C\c1ccc(Cl)cc1)c1ccccc1)c1ccccc1`
output: f

input: Next: `CSc1nc2cc(S(=O)(=O)N3CCCCC3)ccc2s1`
output: f

input: Next: CC(=O)OCC1OC(n2c(-c3ccccc3)c(/N=N/c3ccc(C)cc3)c(C)c(C#N)c2=S)C(OC(C)=O)C(OC(C)=O)C1OC(C)=O (stereo unspecified)
output: f

----------
Tested on: SNB-75
Experiment: NCI tumour cell line growth inhibition, 48 h
Activity calls are given as the source filed them. Rule as the data show it: active = GI50 up to about 1.1 µM and inactive = higher.
Outcomes you can answer with include only these: active, inactive

compound=CSc1nc(NCc2ccccc2)c2cnn(COCCO)c2n1 assigned_label=active
compound=C/C(=N\NC(=S)N1CC2CCC(CC2)C1)c1cccc(C)n1 assigned_label=inactive
compound=Cc1ccc(S(=O)(=O)N/N=C2\C(=O)Nc3cc(O)c(C(=O)O)cc32)cc1 assigned_label=inactive

input: For this compound, state the assay outcome: `N#Cc1ccsc1Nc1ccccc1[N+](=O)[O-]`
output: inactive

input: Next: CN1CN(C2OC(CO)C(O)C2O)c2nc(N)[nH]c(=O)c21 (stereo unspecified)
output: inactive

input: Next: `SC1=C2CCCCCC2=NC2(CCCCCC2)S1`
output: inactive

----------
Readings of GI50 for the listed molecules
Test system: IGROV-1
Assay: NCI tumour cell line growth inhibition, 48 h
Activity calls are given as the source filed them. Rule as the data show it: active = GI50 up to about 1.1 µM and inactive = higher.

Some molecules with recorded GI50:
molecule="CC1(Cl)C(=O)NC(=O)N([C@H]2C[C@H](O)[C@@H](CO)O2)C1N=[N+]=[N-] (stereo partly specified)" measure=GI50 value_reported="> 100 µM (inactive)"
molecule="COC(=O)/C(C#N)=C1\\CCC(Nc2cccc(C(F)(F)F)c2)N1C (stereo unspecified)" measure=GI50 value_reported="> 100 µM (inactive)"
molecule=COCN1COCN(C)C1=O measure=GI50 value_reported="> 100 µM (inactive)"
molecule="COCC1C(=O)c2cc3c(cc2C12C=CC1(C=C2)OCCO1)OCO3 (stereo unspecified)" measure=GI50 value_reported="15.4 µM (inactive)"
molecule="O=C1CC(c2c[nH]c3ccccc23)C(=O)N1 (stereo unspecified)" measure=GI50 value_reported="> 100 µM (inactive)"
molecule=CCOC(=O)Cc1[nH]c(C(=O)c2ccccc2)cc1C(=O)c1ccccc1 measure=GI50 value_reported="> 10 µM (inactive)"
molecule=FC(F)(F)c1ccc2c(c1)N(CCCNCCN1CCOCC1)c1ccccc1S2 measure=GI50 value_reported="15.8 µM (inactive)"
molecule="CC(=O)O/C=C(/C=C/OC(C)=O)C(C/C=C(\\C)C#CC=C(C)C)OC(C)=O (stereo unspecified)" measure=GI50 value_reported="30.4 µM (inactive)"
molecule=COc1cc2c(cc1OC)C(=O)/C(=C/c1ccc(N(C)C)cc1)CC2 measure=GI50 value_reported="> 10 µM (inactive)"
molecule=COc1ccc(O)c(/C=N/NC(=S)N2CCCCC2)c1 measure=GI50 value_reported="2.78 µM (inactive)"

Now for another entry.
input: Which GI50 reading was recorded for the molecule `O=C1c2cc3c(cc2CC12Cc1cc4c(cc1C2)CCC4)CCC3` ?
output: > 100 µM (inactive)

----------
Test system: KM12
Assay: NCI tumour cell line growth inhibition, 48 h
The source made the active and inactive calls. No stated cut-off is given here; in the data, active = GI50 up to about 1.1 µM and inactive = higher.
Outcomes you can answer with include only these: true for active, false for inactive

input: For this molecule, state the assay outcome: `CSc1nc2cc(S(=O)(=O)N3CCCCC3)ccc2s1`
output: false

input: Next: `C=C(C)c1cc(C(C)(C)C)cc(C(=C)C)c1S(C)(=O)=O`
output: false

----------
System: HOP-92
Assay: NCI tumour cell line growth inhibition, 48 h
Active and inactive are the calls of the source. Cut-off read from the data, not from the text of the source: active = GI50 up to about 1.1 µM and inactive = higher.
Outcomes you can answer with include only these: y for active, n for inactive

Past entries and their recorded results:
molecule=NC1=NS(=O)(=O)Nc2nc(-c3ccc([N+](=O)[O-])cc3)[nH]c21 assigned_label=n
molecule=O=C1C2CCN(CC2)C1(CO)CO assigned_label=n
molecule="COC(=O)C1=C(OC(=O)/C=C/c2ccc(Cl)cc2)C(C(=O)OC)[C@]2(O)[C@@H](C(=O)OC)[C@H]1C[C@@H](c1ccccc1)[C@@H]2C(=O)OC (stereo not given in full)" assigned_label=n
molecule="CCOc1cc(C2CC(c3ccc(NS(=O)(=O)c4cc([N+](=O)[O-])ccc4C)cc3)=NN2)ccc1O (stereo not given)" assigned_label=n
molecule=CSc1nc2cc(S(=O)(=O)N3CCCCC3)ccc2s1 assigned_label=n
molecule="CC(=O)C1C(=O)C(=O)N(CCN2C(=O)C(=O)C(C(C)=O)C2=O)C1=O (stereo not given)" assigned_label=n
molecule="COc1ccc(N2C(=O)C3c4[nH]c5c(C)cccc5c4C4CCC(C(C)C)CC4C3C2=O)cc1 (stereo not given)" assigned_label=n
molecule="CCCCCCC(=O)O[C@H]1CC[C@H]2[C@@H]3CCC4C/C(=N/NC(=O)c5cccc6c(=O)c7ccccc7[nH]c56)C=C(C)[C@]4(C)[C@H]3CC[C@]12C (stereo not given in full)" assigned_label=n
molecule=O=C1/C(=N\O)c2ccccc2S1(=O)=O assigned_label=n
molecule=Cc1ccc(P(c2ccc(C)cc2)c2ccc(C)cc2)cc1 assigned_label=n

input: For this molecule, state the assay outcome: Cc1cc2c(cc1C)C(=O)C1(C2)Cc2c(C)ccc(C)c2C1=O (stereo not given)
output: n

input: Next: `N/N=c1/nc2n(c3ncccc13)C=CNN2`
output: n

input: Next: `COc1ccc2oc(=N)c(C(=O)Nc3ccccn3)cc2c1`
output: n

input: Next: `O=c1[nH]c(C2CCCCC2)nc2ccc(Cl)cc12`
output: n

input: Next: OCc1ccc2c(c1)CC1(Cc3ccc(/C=N/O)cc3C1)C2 (stereo not given)
output: n

input: Next: O=c1cnn(C2OC(CO)C(O)C(F)C2O)c(=O)[nH]1 (stereo not given)
output: n

input: Next: `O=C(C/C=C/c1ccccc1)c1ccccc1`
output: n

----------
Test system: KM12
Assay: NCI tumour cell line growth inhibition, 48 h
Calls of active or inactive are those of the source. Rule as the data show it: active = GI50 up to about 1.1 µM and inactive = higher.
Outcomes you can answer with include only these: active, inactive

Past entries and their recorded results:
compound=Cc1nc(Nc2ccc(Cl)cc2Cl)sc1C(=O)Nc1ccccc1 assigned_label=inactive
compound=COc1cc2c(cc1OC)-c1cc(OC)c(OC)cc1[C@H]1CN3CCC[C@@]3(O)C=C21 assigned_label=active
compound="CCc1c(OC(C)=O)c2c(NC3OC(COC(C)=O)C(OC(C)=O)C(OC(C)=O)C3OC(C)=O)nc(OC)nc2oc1=O (stereo not drawn)" assigned_label=inactive
compound=C/C(CCn1[nH]c(=O)ccc1=O)=N\O assigned_label=inactive

Consider the record given below.
input: For this compound, state the assay outcome: `COc1ccc2oc(=N)c(C(=O)Nc3ccccn3)cc2c1`
output: inactive

----------
Test system: MOLT-4
Assay: NCI tumour cell line growth inhibition, 48 h
Calls of active or inactive are those of the source. No stated cut-off is given here; in the data, active = GI50 up to about 1.1 µM and inactive = higher.
Measure: GI50

compound="CCOC(=O)Nc1ccc(S(=O)(=O)OC)cc1.CCOC(=O)Nc1ccc(S(=O)(=O)OC)cc1.Nc1ncnc2c1ncn2C1OC(CO)C(O)C1O (stereo not drawn)" value_reported="> 100 µM (inactive)"
compound=N/N=c1/nc2n(c3ncccc13)C=CNN2 value_reported="> 100 µM (inactive)"
compound=CC(C)c1cc(C(C)C)c(B(c2ccccc2)c2ccccc2)c(C(C)C)c1B(c1ccccc1)c1ccccc1 value_reported="> 100 µM (inactive)"
compound=FC(F)(F)c1nc2ccc3[nH]c4c(-c5ccccc5)nccc4c3c2[nH]1 value_reported="> 100 µM (inactive)"
compound=CCOC(=O)CC1=Nc2ccccc2SC1 value_reported="> 100 µM (inactive)"
compound="COc1c(C2=NC(C(C)C)CO2)ccc2ccccc12 (stereo not drawn)" value_reported="14.2 µM (inactive)"
compound=C/C(=N\NC(=S)N1CC2CCC(CC2)C1)c1cccc(C)n1 value_reported="0.01 µM (active)"
compound=COc1cc(OC)c(OC)cc1/C=C\c1ccnc2ccccc12 value_reported="0.575 µM (active)"
compound=CN(C)CCCNC(=O)c1cc(NC(=O)c2cc(NS(=O)(=O)c3ccc4c(c3)C(=O)c3ccccc3C4=O)cn2C)cn1C value_reported="24 µM (inactive)"
compound=C=C1C[C@]23CC[C@@H]4C(CO)(CO)CC(=O)C[C@]4(C)[C@@H]2CC[C@H]1C3 value_reported="> 100 µM (inactive)"

input: Lookup: GI50 / MOLT-4 / COc1ccc2c(c1)CCCN1Cc3cc(OC)c(OC)cc3CC21 (stereo not drawn)
output: > 100 µM (inactive)

input: Next: C=C1C(=O)OC2C1C(OC(=O)/C(C)=C/C)CC(O)(CCl)C1C(OC(C)=O)C=C(C)C21O (stereo not drawn)
output: 3.69 µM (inactive)

input: Next: `Cc1cc(C)nc(NS(=O)(=O)c2ccc(Nc3c4ccccc4nc4c(C(=O)NCCN(C)C)ccc(Cl)c34)cc2)n1`
output: 0.255 µM (active)

input: Next: O=C(NO)C12C3C4C1C1C2C3C41C(=O)NO (stereo not drawn)
output: > 100 µM (inactive)

input: Next: Cc1cc(Br)cc(C)c1NC(=O)C(=O)C(C(=O)c1ccncc1)C1OC(=O)c2ccccc21 (stereo not drawn)
output: > 100 µM (inactive)

input: Next: `Cc1c2c(n3c(nc4ccccc43)c1C#N)SCC2`
output: > 10 µM (inactive)

input: Next: O=C(O)CCC(NC(=O)c1ccc(Nc2nc3ccc(C(F)(F)F)cc3nc2C(=O)O)cc1)C(=O)O (stereo not drawn)
output: > 100 µM (inactive)
